Test system: HCT-15 colon
MEASUREMENT NOTES: NCI tumour cell line growth inhibition, 48 h
OBSERVED PROPERTY: TGI

For orientation, consider the following solved cases.
[[record]]
compound = "COCCOC(C)C(=O)C(O)S(=O)(=O)O (configuration not stated)"
observed_property = "TGI"
result = "> 100 µM"

[[record]]
compound = "N=c1n(CC(=O)NC23CC4CC(CC(C4)C2)C3)c2ccccc2n1CC(=O)NC12CC3CC(CC(C3)C1)C2"
observed_property = "TGI"
result = "3.31 µM"

[[record]]
compound = "CC(=Nc1ccccc1)C1=C(O)C(Cc2cccc(F)c2)NC1=O (configuration not stated)"
observed_property = "TGI"
result = "> 100 µM"

[[record]]
compound = "O=C1NC(O)c2ccccc2O1 (configuration not stated)"
observed_property = "TGI"
result = "> 100 µM"

[[record]]
compound = "CCn1c(-c2ccc(OC)cc2)nc2c1C(=O)c1ccccc1C2=O"
observed_property = "TGI"
result = "> 100 µM"


Query: Give the reported TGI for `Brc1c2nc3ccccc3nc2n2ccc3ccccc3c12` (system: HCT-15 colon).
Response: > 100 µM

Query: Same thing, different compound: CC(CN1CC(=O)NC(=O)C1)N1CC(=O)NC(=O)C1 (configuration not stated)
Response: > 750 µM
